Reference source for all entries: ChEMBL document CHEMBL1201862

# tested on: Short transient receptor potential channel 4 (Mus musculus, UniProt Q9QUQ5)
# Sequence (Q9QUQ5 whole entry): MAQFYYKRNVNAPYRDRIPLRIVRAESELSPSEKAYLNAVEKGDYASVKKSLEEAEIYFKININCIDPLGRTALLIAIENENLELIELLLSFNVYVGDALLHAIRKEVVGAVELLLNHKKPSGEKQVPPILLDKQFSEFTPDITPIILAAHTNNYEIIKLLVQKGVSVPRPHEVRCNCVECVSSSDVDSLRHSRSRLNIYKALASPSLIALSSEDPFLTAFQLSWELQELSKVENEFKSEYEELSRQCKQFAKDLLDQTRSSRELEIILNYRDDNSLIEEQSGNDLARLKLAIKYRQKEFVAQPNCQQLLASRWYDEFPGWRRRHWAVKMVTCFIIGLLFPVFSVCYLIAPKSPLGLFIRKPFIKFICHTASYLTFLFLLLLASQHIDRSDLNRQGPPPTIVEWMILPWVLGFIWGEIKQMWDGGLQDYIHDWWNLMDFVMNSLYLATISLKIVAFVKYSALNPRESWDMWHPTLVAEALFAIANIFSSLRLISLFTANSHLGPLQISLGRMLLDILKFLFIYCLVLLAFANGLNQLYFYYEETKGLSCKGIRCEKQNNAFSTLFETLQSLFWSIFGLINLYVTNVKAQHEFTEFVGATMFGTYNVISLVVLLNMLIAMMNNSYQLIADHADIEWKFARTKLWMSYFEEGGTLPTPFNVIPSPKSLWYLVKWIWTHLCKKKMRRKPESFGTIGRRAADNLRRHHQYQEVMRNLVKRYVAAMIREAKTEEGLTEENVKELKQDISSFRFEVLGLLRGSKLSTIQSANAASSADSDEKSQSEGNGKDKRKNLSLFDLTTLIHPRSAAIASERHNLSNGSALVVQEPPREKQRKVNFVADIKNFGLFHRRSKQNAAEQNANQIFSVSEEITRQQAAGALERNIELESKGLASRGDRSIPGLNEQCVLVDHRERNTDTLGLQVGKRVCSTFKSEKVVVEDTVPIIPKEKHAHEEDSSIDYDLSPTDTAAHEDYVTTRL
# run description: calcium entry via TRPC4 opening agents – cell-based, HEK293 TRPC4/mu-opioid, Fluo-4 calcium, dose response (AID 434937)
# Type: functional
Activity calls are given as the source filed them.
Reported EC50 values follow for various molecules

Examples from the recorded data:
{"columns": ["molecule", "tested on", "EC50"],
 "data": [
  ["COc1ccc(CCN(C)CCC(=O)Nc2c(C)cc(C)cc2C)cc1OC", "Short transient receptor potential channel 4 (Mus musculus, UniProt Q9QUQ5)", "4730 nM (active)"],
  ["Cc1ccc(S(=O)(=O)NCCC(=O)NCC(c2ccco2)N2CCCCC2)cc1C (stereo unspecified)", "Short transient receptor potential channel 4 (Mus musculus, UniProt Q9QUQ5)", "944 nM (active)"],
  ["CN(C)CCNC(=O)c1c(NC(=O)c2ccccc2)sc2c1CCCC2", "Short transient receptor potential channel 4 (Mus musculus, UniProt Q9QUQ5)", "5960 nM (active)"],
  ["CCOC(=O)C1(Cc2cccc(F)c2)CCN(Cc2cnn(CC)c2C)CC1", "Short transient receptor potential channel 4 (Mus musculus, UniProt Q9QUQ5)", "211 nM (active)"],
  ["Fc1ccc(-n2cc(CNCCc3cccnc3)c(-c3ccccc3Cl)n2)cc1", "Short transient receptor potential channel 4 (Mus musculus, UniProt Q9QUQ5)", "5960 nM (active)"]
]}

Proceed to the following item.
Challenge: Requested field: EC50. Item: COc1ccc(C(CNC(=O)COc2ccccc2OC)N(C)C)cc1OC (stereo unspecified)
Response given: 1190 nM (active)

---

Reported IC50 values follow for various compounds
# tested on: Polyadenylate-binding protein 1 (Homo sapiens)
# Sequence (P11940 whole entry, the tested form may be a part): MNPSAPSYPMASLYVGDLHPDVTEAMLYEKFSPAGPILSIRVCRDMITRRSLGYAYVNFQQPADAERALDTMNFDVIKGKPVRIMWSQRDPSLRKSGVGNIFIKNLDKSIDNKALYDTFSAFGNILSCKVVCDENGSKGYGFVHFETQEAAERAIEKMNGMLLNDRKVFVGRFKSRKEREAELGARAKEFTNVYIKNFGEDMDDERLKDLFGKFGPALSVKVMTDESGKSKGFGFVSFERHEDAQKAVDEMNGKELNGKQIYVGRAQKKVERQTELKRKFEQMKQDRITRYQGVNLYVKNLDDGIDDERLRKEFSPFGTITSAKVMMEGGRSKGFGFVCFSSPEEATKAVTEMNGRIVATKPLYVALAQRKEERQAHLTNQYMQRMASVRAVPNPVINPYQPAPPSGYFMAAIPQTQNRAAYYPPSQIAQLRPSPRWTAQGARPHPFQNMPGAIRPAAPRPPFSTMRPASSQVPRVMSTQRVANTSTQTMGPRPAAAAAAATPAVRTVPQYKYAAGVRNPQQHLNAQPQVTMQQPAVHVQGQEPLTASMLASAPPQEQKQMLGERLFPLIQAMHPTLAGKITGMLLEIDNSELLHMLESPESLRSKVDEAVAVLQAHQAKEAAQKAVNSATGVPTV
# run description: MLLE domain peptide-binding blockers, IC50 – biochemical, fluorescence polarization, FITC-PAM2 peptide, dose response (AID 602259)
# Assay type: functional
# assay setup: read-out: IC50_Mean
Active and inactive are the calls of the source.

Examples from the recorded data:
{"columns": ["compound", "IC50"],
 "data": [
  ["O=C1C=C(O)c2cccc3cccc1c23", "34.5 µM (inactive)"],
  ["Cc1ccc2nc(-c3cccnc3)c(NC3CCCCC3)n2c1", "34.7 µM (inactive)"],
  ["COc1ccc(NC(=O)Nc2sc(NS(=O)(=O)c3ccccc3)nc2C)cc1", "> 66 µM (inactive)"],
  ["O=C(Cn1sc2ccccc2c1=O)NC12CC3CC(CC(C3)C1)C2", "> 66 µM (inactive)"]
]}

Challenge: Requested field: IC50. Item: `COC(=O)c1cc2n3ccccc3c(C)c(-c3ccccc3)c-2c1C(=O)OC`
Response given: 54.7 µM (inactive)

Challenge: Requested field: IC50. Item: `O=C(NCSc1ccccc1)c1ccccc1`
Response given: > 66 µM (inactive)

Challenge: Requested field: IC50. Item: `Cc1cc(O)c(-c2cc(O)c(C)cc2O)cc1O`
Response given: > 66 µM (inactive)

Challenge: Requested field: IC50. Item: `CCC(=O)/C=C1/Sc2ccc(OC)cc2N1CCO`
Response given: > 66 µM (inactive)

---

# tested on: Heat shock factor protein 1 (Mus musculus, UniProt P38532)
# Sequence (P38532 whole entry): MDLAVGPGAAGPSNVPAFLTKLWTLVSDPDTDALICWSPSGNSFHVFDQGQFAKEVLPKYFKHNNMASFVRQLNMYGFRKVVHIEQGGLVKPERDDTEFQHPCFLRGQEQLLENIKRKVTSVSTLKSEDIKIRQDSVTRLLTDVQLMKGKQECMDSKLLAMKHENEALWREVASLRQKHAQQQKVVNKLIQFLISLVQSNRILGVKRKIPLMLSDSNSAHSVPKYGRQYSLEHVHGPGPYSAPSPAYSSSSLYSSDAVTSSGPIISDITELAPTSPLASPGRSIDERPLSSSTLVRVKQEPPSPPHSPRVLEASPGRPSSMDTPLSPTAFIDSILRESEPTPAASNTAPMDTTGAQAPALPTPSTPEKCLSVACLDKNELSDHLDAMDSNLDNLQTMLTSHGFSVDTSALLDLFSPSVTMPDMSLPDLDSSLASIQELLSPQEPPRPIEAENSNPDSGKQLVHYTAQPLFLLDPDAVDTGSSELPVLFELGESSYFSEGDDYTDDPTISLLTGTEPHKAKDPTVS
# run description: decrease of HSF1-responsive luciferase luminescence – cell-based, NIH3T3, dose retest, confirmation (AID 2382);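 note: NIH3T3 fibroblasts with HSF1-driven luciferase reporter stressed by proteasome inhibitor MG132; luminescence from HSF1-driven luciferase expression after 8 hours of MG132 stress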
# Format: functional
Reported EC50 values follow for various compounds

{"columns": ["compound", "EC50"],
 "data": [
  ["Cc1ccc(CSCC(=O)N(C)CC(=O)Nc2ccc(C)cc2)cc1", "> 195 µM (not active)"],
  ["COc1ccc(N2CCN(S(=O)(=O)c3cc4c(cc3C)N(C(C)=O)CCO4)CC2)cc1", "> 195 µM (not active)"],
  ["Cc1nc2ccc(S(=O)(=O)NC(C(=O)NCc3cccs3)C(C)C)cc2s1 (stereo not given)", "> 195 µM (not active)"],
  ["COc1ccc(OC)c(N/C=C/C(=O)c2ccccc2)c1", "0.476 µM (inconclusive)"]
]}

Challenge: Give Heat shock factor protein 1 (Mus musculus, UniProt P38532) EC50 for `O=C(CCC(=O)c1ccc(Br)cc1)Nc1cccnc1`
Response given: > 195 µM (not active)
